Reported GI50 is given for each of the following molecules.
# System: BT-549 breast
# Method: NCI tumour cell line growth inhibition, 48 h
Quantity Name: GI50

- Molecule: "Nc1c2ccccc2nc2ccccc12 (tested in a mixture with another compound)"
  Result: "4.42 µM"
- Molecule: "COc1ccc(C2CC(=O)c3c(O)c(OC)c(OC)c(OC)c3O2)cc1O (centres undefined)"
  Result: "0.0745 µM"
- Molecule: "C=CCSSc1ncnc2c1ncn2C1OC(CO)C(O)C1O (centres undefined)"
  Result: "3.67 µM"
- Molecule: "C=C(C)[C@@H]1CC[C@]2(C(N)=O)CC[C@]3(C)[C@H](CC[C@@H]4[C@@]5(C)C/C(=C/c6cccnc6)[C@H](O)C(C)(C)[C@@H]5CC[C@]43C)[C@@H]12"
  Result: "6.36 µM"
- Molecule: "COc1ccc2c(c1)C(=O)c1c-2c(NCCN(C)C)nc2ccccc12"
  Result: "5.99 µM"
- Molecule: "Cc1nc2sc(C(=O)Nc3cccc(Br)c3)c(N)c2cc1C(O)c1ccccc1 (centres undefined)"
  Result: "1.75 µM"
- Molecule: "Cc1ccc(NC(=O)c2cc3ccccc3cc2O)c(C)c1.Cc1ccc(NC(=O)c2cc3ccccc3cc2[O-])c(C)c1.[Ni+2]"
  Result: "2.44 µM"
- Molecule: "Nc1ccccc1C#Cc1ccccc1C#Cc1cnccn1"
  Result: "13.7 µM"
- Molecule: "COc1cc2c3c(n(CCCN4CCCC(O)C4)c(=O)c2cc1OC)-c1cc2c(cc1C3=O)OCO2 (centres undefined)"
  Result: "0.898 µM"

###

# System: RPMI-8226 leukemia
# Method: NCI tumour cell line growth inhibition, 48 h
Quantity Name: TGI (µM)

- Compound: "COc1cccc(Nc2nc(N)nc(N)c2N=O)c1"
  Quantity Name: "TGI"
  Unit String: "µM"
  Rel: "="
  Numeric Readout: 60.6
- Compound: "COc1ccc2c(c1)CC[C@@H]1[C@@H]2CC[C@]2(C)C(=O)/C(=C/c3ccc(O)c(OC)c3)C[C@@H]12"
  Quantity Name: "TGI"
  Unit String: "µM"
  Rel: ">"
  Numeric Readout: 100
- Compound: "O=S(=O)(Nc1ccccn1)c1ccc(N=Nc2ccc(O)c3ncccc23)cc1"
  Quantity Name: "TGI"
  Unit String: "µM"
  Rel: "="
  Numeric Readout: 27.7
- Compound: "Cn1c(=O)c2c(nc3n(C)c(=O)c4ccccc4n23)n(C)c1=O"
  Quantity Name: "TGI"
  Unit String: "µM"
  Rel: ">"
  Numeric Readout: 76.7
- Compound: "CC(=O)C1=C(O)CCC1=O"
  Quantity Name: "TGI"
  Unit String: "µM"
  Rel: ">"
  Numeric Readout: 100
- Compound: "CCOC(=O)c1ccc(N=c2oc3ccc(OC)cc3cc2-c2nc3ccccc3[nH]2)cc1"
  Quantity Name: "TGI"
  Unit String: "µM"
  Rel: ">"
  Numeric Readout: 100
- Compound: "Cn1sc2ccccc2c1=S"
  Quantity Name: "TGI"
  Unit String: "µM"
  Rel: "="
  Numeric Readout: 18.7
- Compound: "CCN1CCN(c2ccc(Nc3ncc4ccc5ncn(C(C)C)c5c4n3)nc2)CC1"
  Quantity Name: "TGI"
  Unit String: "µM"
  Rel: "="
  Numeric Readout: 1.45
- Compound: "Oc1c(I)cc(I)cc1CN(Cc1ccccn1)Cc1ccccn1"
  Quantity Name: "TGI"
  Unit String: "µM"
  Rel: "="
  Numeric Readout: 14.1
- Compound: "CCCc1c(C(=O)OCC)[nH]c(C(=O)CCC(=O)c2[nH]c(C(=O)OCC)c(CCC)c2C(=O)OCC)c1C(=O)OCC"
  Quantity Name: "TGI"
  Unit String: "µM"
  Rel: ">"
  Numeric Readout: 100
- Compound: "C=CCC1C(=O)Nc2cccc3ncn(c23)C1=O (stereo not drawn)"
  Quantity Name: "TGI"
  Unit String: "µM"
  Rel: ">"
  Numeric Readout: 100
- Compound: "Nc1nc(-c2ccccc2)cc(-c2ccc(Cl)cc2)c1-c1nc2ccccc2o1"
  Quantity Name: "TGI"
  Unit String: "µM"
  Rel: "="
  Numeric Readout: 19.8
- Compound: "OC(CC(O)(C(F)(F)F)C(F)(F)F)C(O)c1ccco1 (stereo not drawn)"
  Quantity Name: "TGI"
  Unit String: "µM"
  Rel: ">"
  Numeric Readout: 10
- Compound: "O=c1[nH]c2cc([N+](=O)[O-])ccc2nc1/C=C(\\O)c1ccc(Cl)cc1"
  Quantity Name: "TGI"
  Unit String: "µM"
  Rel: "="
  Numeric Readout: 65.2
- Compound: "Oc1c(CN2CCN(c3ccccc3F)CC2)cc(Br)c2cccnc12"
  Quantity Name: "TGI"
  Unit String: "µM"
  Rel: "="
  Numeric Readout: 15.6
- Compound: "CNC(=O)CN1CCC(Oc2cc3c(Nc4cccc(Cl)c4F)ncnc3cc2OC)CC1"
  Quantity Name: "TGI"
  Unit String: "µM"
  Rel: ">"
  Numeric Readout: 100
- Compound: "Cc1ccc(C2SCC(=O)N2NC(=O)c2ccncc2)s1 (stereo not drawn)"
  Quantity Name: "TGI"
  Unit String: "µM"
  Rel: ">"
  Numeric Readout: 100
- Compound: "O=C1COCCN1C(=O)c1ccccc1Cl"
  Quantity Name: "TGI"
  Unit String: "µM"
  Rel: ">"
  Numeric Readout: 100
- Compound: "COc1ccc(C2CC(=O)c3c(O)c(OC)c(OC)c(OC)c3O2)cc1O (stereo not drawn)"
  Quantity Name: "TGI"
  Unit String: "µM"
  Rel: ">"
  Numeric Readout: 77.5
- Compound: "CN(C)c1nc(=NCc2cccnc2)ss1"
  Quantity Name: "TGI"
  Unit String: "µM"
  Rel: ">"
  Numeric Readout: 10
- Compound: "Cc1ccc(N2C(=O)C(Cl)=C(Cl)C2=O)cc1"
  Quantity Name: "TGI"
  Unit String: "µM"
  Rel: "="
  Numeric Readout: 52.8
- Compound: "COC(=O)C1=C(C)N(NC(N)=O)C(C)(O)C12CCOC2=O (stereo not drawn)"
  Quantity Name: "TGI"
  Unit String: "µM"
  Rel: ">"
  Numeric Readout: 100
- Compound: "Cc1ccc(SSCCCCCS(=O)O)cc1"
  Quantity Name: "TGI"
  Unit String: "µM"
  Rel: "="
  Numeric Readout: 71.4

###

# Test system: IGROV1 ovarian
# Method: NCI tumour cell line growth inhibition, 48 h
Where a SMILES comes first, the peptide text is derived from it. [ ]: non-standard residue; d: D form. The star is where a group is joined. Bn2Val = CC(C)[C@@H](C(=O)*)N(Cc1ccccc1)Cc1ccccc1; NH(3,4-diMeO-benzyl) = COc1ccc(CN*)cc1OC; NMeV = CN[C@H](C(=O)O)C(C)C
Overview of reported TGI across a group of molecules:

- Molecule: "Clc1ccc2c(NCCNc3nc(N4CCCC4)nc4ccccc34)ccnc2c1"
  Rel: "="
  TGI (µM): 4.6
- Molecule: "Cc1ccccc1NC(=O)c1ccc([N+](=O)[O-])cc1"
  Rel: ">"
  TGI (µM): 100
- Molecule: "C/C(=C\\c1ccn(-c2ccc(N)cc2F)n1)[C@@H]1C[C@@H]2O[C@]2(C)CCC[C@H](C)[C@H](O)[C@@H](C)C(=O)C(C)(C)[C@@H](O)CC(=O)O1"
  Rel: ">"
  TGI (µM): 50
- Molecule: "CC(=O)[O][Bi]([c]1ccccc1)[c]1ccccc1"
  Rel: "="
  TGI (µM): 6.77
- Molecule: "CN(C)Cc1cc(/C=C/C(=O)c2ccc(Cl)c(Cl)c2)cc(CN(C)C)c1O"
  Rel: "="
  TGI (µM): 25.3
- Molecule: "O=C1C[C@H](CCC(=O)OCc2ccccc2)NC(=O)C[C@H](CCC(=O)OCc2ccccc2)NC(=O)C[C@H](CCC(=O)OCc2ccccc2)N1"
  Rel: ">"
  TGI (µM): 100
- Molecule: "COc1ccc(C(c2cc3c(cc2O)OCO3)N2CCOCC2)cc1OC (centres undefined)"
  Rel: "="
  TGI (µM): 29.6
- Molecule: "COc1ccc(C2C3=C(COC3=O)Oc3cc4c(cc32)OCO4)cc1 (centres undefined)"
  Rel: ">"
  TGI (µM): 100
- Molecule: "CC(C)c1ccc2nc3ccc(C(=O)NCCN4CCN(c5ccccc5)CC4)cn3c(=O)c2c1"
  Rel: ">"
  TGI (µM): 100
- Molecule: "O=C1OC(CS(=O)(=O)c2ccccc2)CC1O (centres undefined)"
  Rel: ">"
  TGI (µM): 100
- Molecule: "COC1=C(OC)[C@]2(OC)c3c(O)c(OC)c4c(c3O[C@@]23O[C@@H](c2ccccc2)CC=C3C1=O)[C@@H](O)C[C@H](c1ccccc1)O4"
  Rel: "="
  TGI (µM): 2.44
- Molecule: "Cn1sc2ccccc2c1=S"
  Rel: "="
  TGI (µM): 31.7
- Molecule: "O=Nc1c(NO)ccc2nn(-c3ccccc3)nc12"
  Rel: "="
  TGI (µM): 49.4
- Molecule: "N#CSc1ccc(S(N)(=O)=O)cc1"
  Rel: ">"
  TGI (µM): 100
- Molecule: "COC(=O)c1ccc(NCC2=CC(=O)C=CC2=O)cc1"
  Rel: "="
  TGI (µM): 34.1
- Molecule: "CCN1CCN(c2ccc(Nc3ncc4ccc5ncn(C(C)C)c5c4n3)nc2)CC1"
  Rel: "="
  TGI (µM): 1.6
- Molecule: "CSC1(CC(=O)N2CCCCC2)C(=O)Nc2ccccc21 (centres undefined)"
  Rel: ">"
  TGI (µM): 100
- Molecule: "O=C1NC2C(CCO)CC=C[C@H]2c2cc3c(cc21)OCO3 (some centres undefined)"
  Rel: ">"
  TGI (µM): 100
- Molecule: "COc1ccc(CNC(=O)[C@@H]2CCCN2C(=O)[C@@H]2CCCN2C(=O)[C@H](C(C)C)N(C)C(=O)[C@@H](NC(=O)[C@H](C(C)C)N(Cc2ccccc2)Cc2ccccc2)C(C)C)cc1OC (Bn2Val-V[NMeV]PP-{NH(3,4-diMeO-benzyl)})"
  Rel: "="
  TGI (µM): 13.4

The values you see were collected from PubChem BioAssay (NCI).
